target: T1, KRAS G12V peptide on HLA-A*11:01 (human); assay: killing
T1 peptide: VVVGAVGVGK
endpoint: binding result

# binder, observed_measurement
data = [
    ("TCR7 (TCR, V domains shown) Valpha: DQQVKQNSPSLSVQEGRISILNCDYTNSMFDYFLWYKKYPAEGPTFLISISSIKDKNEDGRFTVFLNKSAKHLSLHIVPSQPGDSAVYFCAGKTNTGNQFYFGTGTSLTVIP Vbeta: KAGVTQTPRYLIKTRGQQVTLSCSPISGHRSVSWYQQTPGQGLQFLFEYFSETQRNKGNFPGRFSGRQFSNSRSEMNVSTLELGDSALYLCASSSGHPEAFFGQGTRLTVV", "recognises"),
    ("TCR8 (TCR, V domains shown) Valpha: SQQGEEDPQALSIQEGENATMNCSYKTSINNLQWYRQNSGRGLVHLILIRSNEREKHSGRLRVTLDTSKKSSSLLITASRAADTASYFCATDAGGGADGLTFGKGTHLIIQP Vbeta: DSGVTQTPKHLITATGQRVTLRCSPRSGDLSVYWYQQSLDQGLQFLIQYYNGEERAKGNILERFSAQQFPDLHSELNLSSLELGDSALYFCASSESRDSGNTIYFGEGSWLTVV", "recognises"),
    ("TCR6 (TCR, V domains shown) Valpha: AQSVTQPDIHITVSEGASLELRCNYSYGATPYLFWYVQSPGQGLQLLLKYFSGDTLVQGIKGFEAEFKRSQSSFNLRKPSVHWSDAAEYFCAVGASREYGNKLVFGAGTILRVKS Vbeta: NAGVMQNPRHLVRRRGQEARLRCSPMKGHSHVYWYRQLPEEGLKFMVYLQKENIIDESGMPKERFSAEFPKEGPSILRIQQVVRGDSAAYFCASSPGGLLHFGNGTRLTVT", "recognises"),
]
